system: Adenosylhomocysteinase (Bos taurus)
Quick rule for you: k2 under 0.04 min⁻¹ gets Fulfilled, anything else gets Not fulfilled.

[
  {
    "mol": "C=C[C@H]1C[C@@H](n2cnc3c(N)ncnc32)[C@H](O)[C@@H]1O",
    "class": "Not fulfilled"
  },
  {
    "mol": "CC[C@H]1C[C@@H](n2cnc3c(N)ncnc32)[C@H](O)[C@@H]1O",
    "class": "Not fulfilled"
  },
  {
    "mol": "Nc1ncnc2c1ncn2[C@@H]1C[C@H](c2ccccc2)[C@@H](O)[C@H]1O",
    "class": "Fulfilled"
  },
  {
    "mol": "CC1=C[C@@H](n2cnc3c(N)ncnc32)[C@H](O)[C@@H]1O",
    "class": "Not fulfilled"
  },
  {
    "mol": "Nc1ncnc2c1ncn2[C@@H]1C=C[C@@H](O)[C@H]1O",
    "class": "Not fulfilled"
  },
  {
    "mol": "C[C@@H]1C[C@@H](n2cnc3c(N)ncnc32)[C@H](O)[C@@H]1O",
    "class": "Fulfilled"
  }
]

Turning to the following molecule.
# input Identify whether the molecule Nc1ncnc2c1ncn2[C@@H]1CC[C@@H](O)[C@H]1O records k2 below 0.04 min⁻¹.
# output Not fulfilled
